Study System: UniProt:Q96P20
Sequence (Q96P20 whole entry): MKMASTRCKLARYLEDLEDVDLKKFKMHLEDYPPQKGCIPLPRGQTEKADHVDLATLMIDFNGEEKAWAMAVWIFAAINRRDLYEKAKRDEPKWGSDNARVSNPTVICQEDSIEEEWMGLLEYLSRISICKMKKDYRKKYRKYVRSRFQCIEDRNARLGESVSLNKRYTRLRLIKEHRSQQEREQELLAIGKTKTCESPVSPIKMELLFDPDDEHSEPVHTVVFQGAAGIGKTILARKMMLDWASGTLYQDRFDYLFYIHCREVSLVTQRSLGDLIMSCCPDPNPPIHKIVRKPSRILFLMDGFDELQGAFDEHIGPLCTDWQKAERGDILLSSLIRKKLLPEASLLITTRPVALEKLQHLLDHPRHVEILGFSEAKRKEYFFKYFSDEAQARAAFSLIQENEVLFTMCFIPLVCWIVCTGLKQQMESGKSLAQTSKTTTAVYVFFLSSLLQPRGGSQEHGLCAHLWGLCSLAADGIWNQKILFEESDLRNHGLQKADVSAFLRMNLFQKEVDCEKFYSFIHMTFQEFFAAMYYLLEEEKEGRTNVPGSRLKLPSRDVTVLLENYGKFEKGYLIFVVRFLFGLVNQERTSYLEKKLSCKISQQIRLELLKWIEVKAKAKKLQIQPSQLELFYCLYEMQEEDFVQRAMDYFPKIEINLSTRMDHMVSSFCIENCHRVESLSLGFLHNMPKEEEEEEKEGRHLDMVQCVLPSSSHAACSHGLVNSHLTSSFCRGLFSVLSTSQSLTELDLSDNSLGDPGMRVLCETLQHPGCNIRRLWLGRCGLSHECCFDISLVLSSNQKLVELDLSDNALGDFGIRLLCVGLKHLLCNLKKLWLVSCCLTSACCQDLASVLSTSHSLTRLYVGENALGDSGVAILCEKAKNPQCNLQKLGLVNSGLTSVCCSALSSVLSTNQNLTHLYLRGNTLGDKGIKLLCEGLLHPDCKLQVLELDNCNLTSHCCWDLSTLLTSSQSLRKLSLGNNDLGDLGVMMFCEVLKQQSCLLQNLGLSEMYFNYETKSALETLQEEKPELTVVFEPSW
Procedure Text: Human PBMC NLRP3 Assay (IL-1β release)
Assay type: cell-based
Parameters: Human PBMCs (Normal): iXCells Cat #10HU-003; host or cells: human PBMCs (normal donors), LPS-primed, nigericin-stimulated
Applied Conditions: human PBMCs, LPS priming, nigericin stimulation; numeric values of Tables C1-C4
Each entry below lists one item and its recorded pIC50 value.
On this scale, pIC50 is minus log10 of a concentration expressed in M (mol/L).

Consider the following illustrative entries.
CC1(C)C(=O)N(CC(=O)NCCCC(=O)O)c2c(F)cc(Br)cc21; 7.70
CC1(C)C(=O)N(CC(=O)NCCCC(=O)O)c2c(F)cc(C3CC3)cc21; 7.62
CC(C)(CCC(=O)O)NC(=O)CN1C(=O)C(C)(C)c2cc(C(F)(F)F)ccc21; 6.16
CC1(C)C(=O)N(CC(=O)NCCCc2nnn[nH]2)c2c(F)cc(C3CC3)c(F)c21; 7.82
CC1(C)C(=O)N(CC(=O)NCCCc2cn[nH]n2)c2c(F)cc(C3CC3)c(F)c21 [COMPARATIVE EXAMPLE 7, reference compound]; 6.17
CC1(C)C(=O)N(CC(=O)NCCCC(=O)O)c2ccc(C3CC3)c(F)c21; 7.34

**Query** Determine its reported pIC50: CC(C)(CNC(=O)CN1C(=O)C(C)(C)c2cc(Br)ccc21)CC(=O)O
**Result** 6.96

Values compiled from patent US20240368131A1.
